Known MIC of a selection of molecules
# System: Pseudomonas aeruginosa
# method-description: microbe, parasite or virus in culture
# Assay type: functional
# experimental-conditions: ATCC 27853, 5 h
# Description: Inhibition of cell division in penicillin-susceptible Pseudomonas aeruginosa ATCC 27853 assessed as filamentation after 5 hrs by phase contrast microscopy

Below are worked cases with known answers.
Cc1nc2ccccc2n1C(=O)/C=C/c1ccc(F)cc1 ... > 128 µg/mL
COc1ccc(/C=C/C(=O)Nc2cccnc2)cc1 ... 128 µg/mL

The record that follows has no MIC shown yet.
Give the reported MIC for this molecule. O=C(/C=C/c1ccc(Cl)cc1Cl)N1CCOCC1
> 128 µg/mL

---

Known MIC of a selection of compounds
# System: Staphylococcus epidermidis
# method-description: Antibacterial activity against penicillin-resistant Staphylococcus epidermidis clinical isolates after 24 hrs by broth microdilution method
# Format: functional

Below are worked cases with known answers.
Cc1nc2ccccc2n1C(=O)/C=C/c1ccc([N+](=O)[O-])cc1 ... 128 µg/mL
CCCCNC(=O)/C=C/c1ccc(Cl)cc1Cl [N-BUTYL-3-(2,4-DICHLOROPHENYL)ACRYLAMIDE] ... > 128 µg/mL
CCCNC(=O)/C=C/c1ccc(Cl)cc1Cl ... > 128 µg/mL

The record that follows has no MIC shown yet.
Give the reported MIC for this compound. COc1ccccc1/C=C/C(=O)n1c(C)nc2ccccc21
16 µg/mL

---

# System: Escherichia coli
# method-description: microbe, parasite or virus in culture
# Type: functional
# experimental-conditions: ATCC 25922, 5 h
# Description: Inhibition of cell division in penicillin-susceptible Escherichia coli ATCC 25922 assessed as filamentation after 5 hrs by phase contrast microscopy
Known MIC of a selection of molecules

COc1ccc(/C=C/C(=O)N(C)C)cc1OC ... 128 µg/mL
CCCCNC(=O)/C=C/c1ccc(OC)c(OC)c1 ... > 128 µg/mL
COc1cc(/C=C/C(=O)CC(=O)/C=C/c2ccc(O)c(OC)c2)ccc1O [CURCUMIN] ... > 128 µg/mL
CC(C)NC(=O)/C=C/c1ccc([N+](=O)[O-])cc1 ... > 128 µg/mL
C#CCNC(=O)/C=C/c1ccc([N+](=O)[O-])cc1 ... > 128 µg/mL

Give the reported MIC for this molecule. COc1ccc(/C=C/C(=O)n2c(C)nc3ccccc32)cc1
> 128 µg/mL

Give the reported MIC for this molecule. CCCCNC(=O)/C=C/c1ccc(C#N)cc1
> 128 µg/mL

Give the reported MIC for this molecule. CCCCCCNC(=O)/C=C/c1ccc(Cl)cc1Cl
> 128 µg/mL

Give the reported MIC for this molecule. Cc1nccn1-c1cc(NC(=O)/C=C/c2ccc([N+](=O)[O-])cc2)cc(C(F)(F)F)c1
> 128 µg/mL

Give the reported MIC for this molecule. Cc1nc2ccccc2n1C(=O)/C=C/c1ccc(Cl)cc1
> 128 µg/mL

Give the reported MIC for this molecule. Cc1nc2ccccc2n1C(=O)/C=C/c1ccccc1
> 128 µg/mL

Give the reported MIC for this molecule. CCN(CC)C(=O)/C=C/c1ccc(Cl)cc1Cl
> 128 µg/mL

Give the reported MIC for this molecule. COc1ccccc1/C=C/C(=O)N1CCN(C(c2ccccc2)c2ccc(Cl)cc2)CC1 (stereo unspecified)
> 128 µg/mL

Give the reported MIC for this molecule. COc1ccc(/C=C/C(=O)Nc2cccnc2)cc1
128 µg/mL

Give the reported MIC for this molecule. Cc1nc2ccccc2n1C(=O)/C=C/c1ccc(Cl)cc1Cl
> 128 µg/mL

Give the reported MIC for this molecule. COc1ccc(NC(=O)/C=C/c2ccc(Cl)cc2Cl)cc1
> 128 µg/mL
